FYI, the data here is from PubChem BioAssay.

Assay: fission yeast growth modulation, primary screen, strain 972, OD600, 24 h, no modulator (AID 1090);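 note: basal condition with compound alone and no growth modifier present; test concentration not given here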
Conditions: S. pombe 972 growth, higher = more signal, called active from +8 up or from −8 down
# if value of z-score reaches -0.2, tag y; if it stays below, tag n

Query: Dear colleague, could you confirm whether O=C1OCCC=C[C@H]2OC34C=CCN(Cc5ccccc5)C(=O)[C@H]3N(CCO)C(=O)[C@@H]4C12 (some centres undefined) has z-score at or above -0.2?
Response: n

Query: Dear colleague, could you confirm whether `COCCOC(=O)N1C(=O)[C@@]2(c3cc(C#CCNC(N)=O)ccc31)[C@H](C(=O)N1CCCCCCC1)[C@H]1C(=O)O[C@H](c3ccccc3)[C@H](c3ccccc3)N1[C@@H]2c1ccccc1OCCO` has z-score at or above -0.2?
Response: n

Query: Dear colleague, could you confirm whether `COCCOC(=O)N1C(=O)[C@@]2(c3cc(C#CCCO)ccc31)[C@H](c1ccc(O)cc1)N1[C@H](c3ccccc3)[C@H](c3ccccc3)OC(=O)[C@H]1[C@@H]2C(=O)Nc1nc2ccccc2s1` has z-score at or above -0.2?
Response: n

Query: Dear colleague, could you confirm whether `CC(=O)Nc1ccc([C@H]2[C@H](C)CC[C@H]3C(=O)N4[C@@H](CC[C@@H](C)[C@@H]4c4ccc(NC(C)=O)cc4)C(=O)N32)cc1` has z-score at or above -0.2?
Response: n

Query: Dear colleague, could you confirm whether `COC(=O)Cn1c(C(=O)N2CCCC2)cc2c1C[C@H]1CN(C(=O)c3ccccc3)[C@@](Cc3ccc(OC)cc3)(C(=O)OC)[C@@H]21` has z-score at or above -0.2?
Response: y

Query: Dear colleague, could you confirm whether `C[C@@H]1CC[C@H]2C(=O)N3CCC[C@H]3C(=O)N2[C@H]1c1ccc(Br)cc1` has z-score at or above -0.2?
Response: n

Query: Dear colleague, could you confirm whether `C#CCCCON=C1C[C@@H](O)[C@@H](O)[C@@H]2[C@@H]3C(=O)N(Cc4ccc5c(c4)OCO5)C(=O)[C@@H]3CC[C@@H]12` has z-score at or above -0.2?
Response: y

Query: Dear colleague, could you confirm whether C=CCC(OC(C)=O)[C@@H]1[C@@H](N(Cc2cc3ccccc3o2)C(=O)Cc2ccc(F)cc2)c2cc(OCCCO)ccc2N1C(=O)c1ccc(-c2ccccc2)cc1 (some centres undefined) has z-score at or above -0.2?
Response: n

Query: Dear colleague, could you confirm whether `COC(=O)C[C@H]1O[C@]2(C(=O)N(C)c3ccccc32)[C@@H](C)[C@@H]1[Si](C)(C)c1ccc(OC)cc1` has z-score at or above -0.2?
Response: n

Query: Dear colleague, could you confirm whether `CC/C=C/C(=O)N(C[C@@H]1CCCO1)[C@@H]1CC(C(=O)NCCO)=C[C@H](Oc2c(I)cc(CO)cc2OC)[C@H]1O` has z-score at or above -0.2?
Response: n

Query: Dear colleague, could you confirm whether O=C1OCC=C[C@H]2OC34C=CCN(Cc5ccccc5)C(=O)[C@H]3N(CCO)C(=O)[C@@H]4[C@@H]12 (some centres undefined) has z-score at or above -0.2?
Response: y

Query: Dear colleague, could you confirm whether `CCCC[C@@H]1C[C@H]1[C@@H](NC(=O)c1ccccc1)c1ccccc1C(F)(F)F` has z-score at or above -0.2?
Response: y

Query: Dear colleague, could you confirm whether O=C1C2C=CC(C(O)C#Cc3ccccc3)N(Nc3ccccc3)C2C(=O)N1c1ccccc1 (centres undefined) has z-score at or above -0.2?
Response: y

Query: Dear colleague, could you confirm whether `CCCC=C(CCC)[C@@H](NC(=O)c1ccc(C(F)(F)F)cc1)c1ccccc1` has z-score at or above -0.2?
Response: n

Query: Dear colleague, could you confirm whether `COc1ccc([Si](C)(C)[C@@H]2[C@@H](CCO)O[C@]3(C(=O)N(Cc4ccc(NC(=O)[C@H](C)O)cc4)c4ccccc43)[C@H]2C)cc1` has z-score at or above -0.2?
Response: n

Query: Dear colleague, could you confirm whether `CCN1C(C)=C(C(=O)OC)[C@@H](c2ccccc2)N2C(=O)[C@](O)(C(=O)OC)[C@@H](c3ccccc3)C(C(C)=O)=C12` has z-score at or above -0.2?
Response: n

Query: Dear colleague, could you confirm whether Cc1ccccc1C(O)C1C=CC2C(=O)N(c3ccccc3)C(=O)C2N1Nc1ccc(C#N)cc1 (centres undefined) has z-score at or above -0.2?
Response: y

Query: Dear colleague, could you confirm whether `C=C(CCCC)C(=O)CC[C@@H](OC(=O)c1cccnc1)c1cccc(OCCO)c1` has z-score at or above -0.2?
Response: n

Query: Dear colleague, could you confirm whether C[C@H]1NC(=O)[C@@H](C)NC(=O)[C@@]23C(=O)N[C@@H](Cc4ccccc4)C2[C@H](C)[C@@]2(C)O[C@H]2C3/C=C/C/C=C\CNC1=O (some centres undefined) has z-score at or above -0.2?
Response: n

Query: Dear colleague, could you confirm whether `CCOC(=O)C1=C[C@@H](c2ccccc2)N(S(=O)(=O)c2ccc(C)cc2)[C@H]1c1ccc(F)cc1` has z-score at or above -0.2?
Response: y

Query: Dear colleague, could you confirm whether `C=C(COC)/C(=C/C[C@H](OC(C)=O)c1ccc(OCCO)cc1)c1cnc2ccccc2c1` has z-score at or above -0.2?
Response: n

Query: Dear colleague, could you confirm whether `CCN1C(C)=C(C(=O)OC)[C@@H](c2ccccc2)N2C(=O)[C@@]3(C(=O)OC)O[C@@]12[C@@H]1C(=O)N(C)C(=O)[C@@H]13` has z-score at or above -0.2?
Response: n

Query: Dear colleague, could you confirm whether `CCCNC(=O)[C@@H]1c2ccccc2C(=O)N(Cc2cc(F)cc(C(F)(F)F)c2)[C@H]1c1ccc(CO)cc1` has z-score at or above -0.2?
Response: n

Query: Dear colleague, could you confirm whether `Cc1ccc(N2C(=O)c3ccccc3[C@@H](C(=O)NCC(F)(F)F)[C@@H]2c2ccc(CO)cc2)nc1` has z-score at or above -0.2?
Response: n

Query: Dear colleague, could you confirm whether `COc1cccc([C@@H]2[C@@H](C)CC[C@H]3C(=O)N4[C@H](c5cccc(OC)c5)[C@@H](C)CC[C@H]4C(=O)N23)c1` has z-score at or above -0.2?
Response: n

Query: Dear colleague, could you confirm whether `COC(=O)[C@@]1(Cc2ccccc2N=[N+]=[N-])N=C(c2ccc(OCCCO)cc2)O[C@H]1c1ccccc1CN=[N+]=[N-]` has z-score at or above -0.2?
Response: n

Query: Dear colleague, could you confirm whether `Cc1ccc(S[C@]2(C(=O)NCCCN(C)C)CC(=O)N(Cc3ccccc3)[C@@H]2c2ccc(CO)cc2I)cc1` has z-score at or above -0.2?
Response: n

Query: Dear colleague, could you confirm whether `C[N+](C)(C)CCCCNC(=O)[C@H]1C[C@H]2C(=O)NCC(=O)N2[C@H]1c1cccc(OCCO)c1` has z-score at or above -0.2?
Response: y
